Target: Progestogene receptor of rabbit uterus (Oryctolagus cuniculus, UniProt P06186)
Construct: the uterus is removed, weighed and homogenized at 0° C; from tissue; host or cells: uterus of estradiol-treated impuberal rabbits, 105,000 g supernatant (cytosol)
Sequence (P06186 whole entry): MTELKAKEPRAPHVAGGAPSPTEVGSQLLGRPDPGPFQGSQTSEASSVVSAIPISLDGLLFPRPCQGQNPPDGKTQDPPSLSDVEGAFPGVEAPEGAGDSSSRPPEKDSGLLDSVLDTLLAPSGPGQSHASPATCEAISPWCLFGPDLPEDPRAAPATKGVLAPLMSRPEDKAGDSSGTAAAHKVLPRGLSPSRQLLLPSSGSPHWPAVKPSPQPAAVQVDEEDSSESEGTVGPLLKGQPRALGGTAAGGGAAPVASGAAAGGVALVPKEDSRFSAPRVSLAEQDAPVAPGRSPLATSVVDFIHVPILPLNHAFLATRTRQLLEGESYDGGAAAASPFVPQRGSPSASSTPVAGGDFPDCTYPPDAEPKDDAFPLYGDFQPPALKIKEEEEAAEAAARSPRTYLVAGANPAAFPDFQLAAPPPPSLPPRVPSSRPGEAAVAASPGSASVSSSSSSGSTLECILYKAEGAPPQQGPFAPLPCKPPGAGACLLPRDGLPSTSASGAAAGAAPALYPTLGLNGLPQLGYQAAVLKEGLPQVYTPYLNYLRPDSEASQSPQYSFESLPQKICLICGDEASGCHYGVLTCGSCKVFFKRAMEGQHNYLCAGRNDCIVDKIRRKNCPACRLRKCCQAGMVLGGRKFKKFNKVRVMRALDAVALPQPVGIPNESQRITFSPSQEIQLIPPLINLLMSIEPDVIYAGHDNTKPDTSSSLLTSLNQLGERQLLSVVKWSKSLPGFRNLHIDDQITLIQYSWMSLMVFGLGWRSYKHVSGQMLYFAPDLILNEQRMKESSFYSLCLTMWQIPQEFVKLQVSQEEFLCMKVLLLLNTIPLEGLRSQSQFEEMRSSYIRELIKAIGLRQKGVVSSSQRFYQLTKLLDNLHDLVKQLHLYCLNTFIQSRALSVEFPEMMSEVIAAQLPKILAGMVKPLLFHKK
Test: Progestogene receptor of rabbit uterus, relative bonding affinity (RBA)
Format: binding
Conditions: incubation 24 H at 0° C.; versus cold reference hormone, tritiated R
reported metric: Relative bonding affinity (RBA), Progestogen, 24 H

Previously resolved entries follow.
molecule="CN(C)c1ccc(C2CC3(C)C(CCC34C=CCO4)C3CCC4=CC(=O)CCC4=C23)cc1 (stereo not shown) [Example 2]" result=222
molecule="CN(C)c1ccc(C2CC3(C)C(CCC34CCCO4)C3CCC4=CC(=O)CCC4=C23)cc1 (stereo not shown) [Example 1]" result=307

[1] CSc1ccc(C2CC3(C)C(CCC34CCCO4)C3CCC4=CC(=O)CCC4=C23)cc1 (stereo not shown) [Example 4]
[2] CSc1ccc(C2CC3(C)C(CCC34C=CCO4)C3CCC4=CC(=O)CCC4=C23)cc1 (stereo not shown) [Example 3]
// query When the recorded Relative bonding affinity (RBA), Progestogen, 24 H values are compared, which is smaller: that of 1 or that of 2 ? Kindly state the label of the option you pick.
// result 2
(2: 242, 1: 388)

* * *

Target: Glucocorticoid receptor of the rat thymus (Rattus norvegicus, UniProt P06536)
Construct: the thymus is removed and homogenized at 0° C. in a buffer; from tissue; host or cells: thymus of adrenalectomized male Sprague-Dawley rats, 105,000 g supernatant (cytosol)
Sequence (P06536 whole entry): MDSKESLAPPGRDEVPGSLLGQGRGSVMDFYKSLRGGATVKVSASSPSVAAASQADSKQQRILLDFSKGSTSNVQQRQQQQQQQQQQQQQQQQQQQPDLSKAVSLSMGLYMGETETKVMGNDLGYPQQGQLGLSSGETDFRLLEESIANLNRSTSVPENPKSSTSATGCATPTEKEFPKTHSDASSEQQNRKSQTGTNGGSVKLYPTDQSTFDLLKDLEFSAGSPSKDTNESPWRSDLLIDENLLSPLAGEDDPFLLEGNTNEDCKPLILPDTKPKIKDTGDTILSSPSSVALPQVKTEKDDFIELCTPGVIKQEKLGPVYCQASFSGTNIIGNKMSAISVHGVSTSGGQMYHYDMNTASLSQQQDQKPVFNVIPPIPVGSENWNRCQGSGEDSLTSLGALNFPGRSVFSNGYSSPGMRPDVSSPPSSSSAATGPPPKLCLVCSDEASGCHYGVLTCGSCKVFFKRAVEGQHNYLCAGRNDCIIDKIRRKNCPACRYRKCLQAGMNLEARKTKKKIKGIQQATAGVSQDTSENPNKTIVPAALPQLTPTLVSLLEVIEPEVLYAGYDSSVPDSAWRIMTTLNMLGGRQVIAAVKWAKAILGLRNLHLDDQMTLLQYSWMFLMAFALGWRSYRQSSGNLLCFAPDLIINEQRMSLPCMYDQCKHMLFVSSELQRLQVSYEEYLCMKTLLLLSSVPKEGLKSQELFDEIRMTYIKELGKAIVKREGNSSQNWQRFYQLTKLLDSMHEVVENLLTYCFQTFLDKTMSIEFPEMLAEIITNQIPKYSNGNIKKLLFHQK
Experiment: Glucocorticoid receptor of the rat thymus, relative bonding affinity (RBA)
Type: binding, rat (Sprague-Dawley)
Settings: incubation 4 H at 0° C.; versus cold dexamethasone, tritiated dexamethasone
reported metric: Relative bonding affinity (RBA), Glucocorticoid, 4 H

molecule="CSc1ccc(C2CC3(C)C(CCC34CCCO4)C3CCC4=CC(=O)CCC4=C23)cc1 (stereo not shown)" result=69
molecule="CN(C)c1ccc(C2CC3(C)C(CCC34C=CCO4)C3CCC4=CC(=O)CCC4=C23)cc1 (stereo not shown)" result=142

[A] CN(C)c1ccc(C2CC3(C)C(CCC34CCCO4)C3CCC4=CC(=O)CCC4=C23)cc1 (stereo not shown)
[B] CSc1ccc(C2CC3(C)C(CCC34C=CCO4)C3CCC4=CC(=O)CCC4=C23)cc1 (stereo not shown)
// query When A and B are compared, which has the higher number for Relative bonding affinity (RBA), Glucocorticoid, 4 H? Kindly state the label of the option you pick.
// result A

* * *

Test system: thymocytes of suprarenalectomized rats
Test: Antiglucocorticoid activity: inhibition of the effect of dexamethasone on tritiated uridine incorporation in thymocytes
Assay type: cell-based
Conditions: Rattus norvegicus, Thymocyte; product at 10^-8 M; 5.10^-8 M dexamethasone; 37° C., 30 hours
reported metric: inhibition at 0.01 µM (%)
Give the quantity in %, number only.

molecule="CSc1ccc(C2CC3(C)C(CCC34C=CCO4)C3CCC4=CC(=O)CCC4=C23)cc1 (stereo not shown) [Example 3]" result=0
molecule="CN(C)c1ccc(C2CC3(C)C(CCC34C=CCO4)C3CCC4=CC(=O)CCC4=C23)cc1 (stereo not shown) [Example 2]" result=0
molecule="CSc1ccc(C2CC3(C)C(CCC34CCCO4)C3CCC4=CC(=O)CCC4=C23)cc1 (stereo not shown) [Example 4]" result=0

// query Form field: reported inhibition at 0.01 µM of CN(C)c1ccc(C2CC3(C)C(CCC34CCCO4)C3CCC4=CC(=O)CCC4=C23)cc1 (stereo not shown) [Example 1]
// result 11
